# System: Acinetobacter baumannii
# assayComment: Antimicrobial activity against multidrug-resistant Acinetobacter baumannii AYE by microdilution broth method
# Format: functional
Task for the reader: assign each of the following compounds its reported MIC.
# number only, unit mg/L dropped from output

INPUT: // fetch MIC given entry "CCN(CC)C(=O)c1cc(-c2ccc(NC(=O)c3cc(NC(=O)CCCOc4cc5c(cc4OC)C(=O)N4CCC[C@H]4C=N5)cn3C)cc2)cn1C"
OUTPUT: 32

INPUT: // fetch MIC given entry "COc1cc2c(cc1OCCCC(=O)Nc1cc(C(=O)Nc3ccc4oc(C(=O)N(C)C)cc4c3)n(C)c1)N=C[C@@H]1CCCN1C2=O"
OUTPUT: 4
